Provenance of the data: patent US10744136B2

Biological target: JAK1 (Homo sapiens)
Construct: purchased Thermo Fisher Scientific
Assay: Z'-LYTE JAK1 kinase screen (Thermo Fisher Scientific)
Type: biochemical
Conditions: test compound 100 nM; 1% DMSO; ATP at Km apparent
metric: inhibition at 0.1 µM (%)

| compound | inhibition at 0.1 µM, % |
| --- | --- |
| CC(C)NS(=O)(=O)C1CC2(CC(N(C)c3ncnc4[nH]ccc34)C2)C1 (stereo not shown) [Compound 4] | 75 |
| CN(c1ncnc2[nH]ccc12)C1CC2(CC(NS(C)(=O)=O)C2)C1 (stereo not shown) [Compound 15] | 78 |
| CN(c1ncnc2[nH]ccc12)C1CC2(CC(NS(=O)(=O)c3ccc(C(F)(F)F)cc3)C2)C1 (stereo not shown) [Compound 14] | 56 |
| CCS(=O)(=O)NC1CC2(C1)CC(N(C)c1ncnc3[nH]ccc13)C2 (stereo not shown) [Compound 16] | 76 |

====

Target: JAK1 (Homo sapiens, UniProt P23458)
Construct: purchased Thermo Fisher Scientific
Sequence (P23458 whole entry): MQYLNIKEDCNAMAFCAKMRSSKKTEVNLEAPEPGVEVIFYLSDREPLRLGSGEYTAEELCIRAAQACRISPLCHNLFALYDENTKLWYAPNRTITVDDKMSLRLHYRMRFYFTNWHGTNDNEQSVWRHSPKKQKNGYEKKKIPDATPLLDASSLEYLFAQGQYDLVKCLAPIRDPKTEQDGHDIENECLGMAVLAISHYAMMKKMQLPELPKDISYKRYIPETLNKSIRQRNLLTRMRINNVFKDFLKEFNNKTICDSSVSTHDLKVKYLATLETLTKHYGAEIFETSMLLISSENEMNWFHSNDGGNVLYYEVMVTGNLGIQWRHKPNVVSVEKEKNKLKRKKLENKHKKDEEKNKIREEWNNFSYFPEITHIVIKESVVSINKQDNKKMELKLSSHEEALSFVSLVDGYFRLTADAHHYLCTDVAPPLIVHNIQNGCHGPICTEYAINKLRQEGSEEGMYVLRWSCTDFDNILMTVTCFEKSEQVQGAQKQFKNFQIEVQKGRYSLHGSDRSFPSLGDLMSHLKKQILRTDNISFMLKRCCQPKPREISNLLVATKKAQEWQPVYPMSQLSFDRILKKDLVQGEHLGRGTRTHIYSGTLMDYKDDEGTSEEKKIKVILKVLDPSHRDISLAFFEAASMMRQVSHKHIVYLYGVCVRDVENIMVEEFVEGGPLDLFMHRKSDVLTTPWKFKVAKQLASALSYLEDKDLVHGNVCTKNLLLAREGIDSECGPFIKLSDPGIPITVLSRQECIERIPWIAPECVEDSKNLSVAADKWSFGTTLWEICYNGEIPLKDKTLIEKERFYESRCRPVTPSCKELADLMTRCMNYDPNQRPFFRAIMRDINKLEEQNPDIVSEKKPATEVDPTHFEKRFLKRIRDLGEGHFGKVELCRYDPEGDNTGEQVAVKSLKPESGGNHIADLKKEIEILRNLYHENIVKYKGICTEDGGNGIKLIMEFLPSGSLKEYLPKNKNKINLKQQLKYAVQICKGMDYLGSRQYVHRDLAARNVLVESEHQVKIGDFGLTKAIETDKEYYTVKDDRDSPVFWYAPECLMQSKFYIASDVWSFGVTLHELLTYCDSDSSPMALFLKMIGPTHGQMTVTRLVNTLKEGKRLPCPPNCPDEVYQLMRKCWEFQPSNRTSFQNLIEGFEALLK
Experiment: Z'-LYTE JAK1 kinase screen (Thermo Fisher Scientific)
Assay type: biochemical
Conditions: test compound 1000 nm (so in the source); 1% DMSO; ATP at Km apparent
metric: % Inhibition 1000 nm (%)

| compound | observed |
| --- | --- |
| CCS(=O)(=O)NC1CC2(C1)CC(N(C)c1ncnc3[nH]ccc13)C2 (centres unmarked) [Compound 16] | 96 |
| CN(c1ncnc2[nH]ccc12)C1CC2(CC(NS(C)(=O)=O)C2)C1 (centres unmarked) [Compound 15] | 95 |
| CN(c1ncnc2[nH]ccc12)C1CC2(C1)CC(S(=O)(=O)N1CCCC1)C2 (centres unmarked) [Compound 30] | 99 |
| CNS(=O)(=O)C1CC2(CC(N(C)c3ncnc4[nH]cnc34)C2)C1 (centres unmarked) [Compound 24] | 72 |
| CC(C)S(=O)(=O)NC1CC2(C1)CC(N(C)c1ncnc3[nH]ccc13)C2 (centres unmarked) [Compound 18] | 94 |
| CN(c1ncnc2[nH]ccc12)C1CC2(CC(NS(=O)(=O)c3ccccc3)C2)C1 (centres unmarked) [Compound 11] | 95 |
| CN(c1ncnc2[nH]ccc12)C1CC2(CC(NS(=O)(=O)c3ccc(Cl)cc3)C2)C1 (centres unmarked) [Compound 13] | 95 |
| CC(C)CNS(=O)(=O)C1CC2(CC(N(C)c3ncnc4[nH]ccc34)C2)C1 (centres unmarked) [Compound 7] | 97 |
| CN(c1ncnc2[nH]ccc12)C1CC2(CC(NS(=O)(=O)c3ccccc3Cl)C2)C1 (centres unmarked) [Compound 12] | 90 |
| CC(C)NS(=O)(=O)C1CC2(CC(N(C)c3ncnc4[nH]ccc34)C2)C1 (centres unmarked) [Compound 4] | 95 |
| CCNS(=O)(=O)C1CC2(CC(N(C)c3ncnc4[nH]ccc34)C2)C1 (centres unmarked) [Compound 2] | 98 |

====

Target: JAK1 (Homo sapiens)
Construct: purchased Thermo Fisher Scientific
Test: Z'-LYTE JAK1 kinase screen (Thermo Fisher Scientific)
Assay type: biochemical
Details: test compound 10 nM; 1% DMSO; ATP at Km apparent
metric: inhibition at 0.01 µM (%)

Here are 4 compounds together with their reported answers.
| compound | inhibition at 0.01 µM / % |
| --- | --- |
| CN(c1ncnc2[nH]ccc12)C1CC2(CC(NS(=O)(=O)CCC(F)(F)F)C2)C1 (stereo not drawn) [Compound 21] | 46 |
| CC(C)S(=O)(=O)NC1CC2(C1)CC(N(C)c1ncnc3[nH]ccc13)C2 (stereo not drawn) [Compound 18] | 23 |
| CN(c1ncnc2[nH]ccc12)C1CC2(CC(NS(=O)(=O)c3ccc(Cl)cc3)C2)C1 (stereo not drawn) [Compound 13] | 27 |
| CN(c1ncnc2[nH]ccc12)C1CC2(C1)CC(S(=O)(=O)NCC(F)(F)F)C2 (stereo not drawn) [Compound 6] | 63 |

[a] CCS(=O)(=O)NCC1CC2(C1)CC(N(C)c1ncnc3[nH]ccc13)C2 (stereo not drawn) [Compound 23]
[b] CNS(=O)(=O)C1CC2(CC(N(C)c3ncnc4[nH]cnc34)C2)C1 (stereo not drawn) [Compound 24]
Q: Could you please tell me which of these two has the higher inhibition at 0.01 µM: a or b ? Pick one; state its label.
Result: a
